# System: MIA PaCa-2
# test-method-notes: Antiproliferative activity against human MIA PaCa-2 cells assessed as inhibition of cell growth measured after 72 hrs by XTT assay
# Type: functional, cell-based
# condition-summary: MIA PaCa-2, 72 h
pIC50: −log10 of the molar value.
metric-name: pIC50

{"query-smiles": "O=C(/C=C/c1cccnc1)NCCCCC1CCN(C(=O)c2ccccc2)CC1", "system-under-test": "MIA PaCa-2", "pIC50": 8.66}
{"query-smiles": "COc1cccc(OC)c1C(=O)N1CCC(CCCCNC(=O)/C=C/c2ccc(F)nc2F)CC1", "system-under-test": "MIA PaCa-2", "pIC50": 7.12}

A. COc1ccc(C(=O)N2CCC(CCCCNC(=O)/C=C/c3cccnc3)CC2)c(OC)c1
B. O=C(/C=C/c1ccnnc1)NCCCCC1CCN(C(=O)c2ccccc2)CC1
C. O=C(/C=C/c1cccnc1)NC/C=C/CC1CCN(C(=O)c2ccccc2)CC1
D. COc1cccc(OC)c1C(=O)N1CCC(CCCCNC(=O)/C=C/c2cccnc2F)CC1
Query: Hey, quick one: sort these by pIC50, low to high? Hello, could you send the labels back in the order asked? Thank you.
Result: B, D, C, A

1. O=C(/C=C/c1cccnc1)NCCCCC1CCN(C(=O)c2ccccc2O)CC1
2. O=C(/C=C/c1ccc(F)nc1F)NCCCCC1CCN(C(=O)c2ccccc2)CC1
3. COc1cccc(OC)c1C(=O)N1CCC(CCCCNC(=O)/C=C/c2ccnnc2)CC1
4. COc1ccccc1C(=O)N1CCC(CCCCNC(=O)/C=C/c2cccnc2)CC1
Query: # desc sort on pIC50 across 4 molecules Hello, could you send the labels back in the order asked? Thank you.
Result: 4, 1, 2, 3
